target: RAC-beta serine/threonine-protein kinase (Homo sapiens); assay: Inhibition of Akt2 phosphorylation by HTRF assay
value_type: IC50 (nM)
All answers are understood in nM, so give the number only.

c1ccc(-c2cc3cnc(N4CCn5cnnc5C4)nc3nc2-c2ccc(CN3CCC(c4nnc(-c5ccccn5)[nH]4)CC3)cc2)cc1	138

Given the molecule C[C@@H]1CN[C@@H](C)CN1c1ncc2cc(-c3ccccc3)c(-c3ccc(CN4CCC(c5nnc(-c6ccccn6)[nH]5)CC4)cc3)nc2n1 , write its reported IC50. 29

// Input: C[C@@H]1CN(c2ncc3cc(-c4ccccc4)c(-c4ccc(CN5CCC(c6nnc(-c7ccccn7)[nH]6)CC5)cc4)nc3n2)C[C@H](C)N1 . Output its IC50 only. 77

// fetch IC50 given entry FC1(F)CCN(c2ncc3cc(-c4ccccc4)c(-c4ccc(CN5CCC(c6nnc(-c7ccccn7)[nH]6)CC5)cc4)nc3n2)C1 252

Return the recorded IC50 value; entry: C[C@H]1CN(c2ncc3cc(-c4ccccc4)c(-c4ccc(CN5CCC(c6nnc(-c7ccccn7)[nH]6)CC5)cc4)nc3n2)CCN1 47

Return the recorded IC50 value; entry: CN1CCN(c2cc3cc(-c4ccccc4)c(-c4ccc(CN5CCC(c6nnc(-c7ccccn7)[nH]6)CC5)cc4)nc3cn2)CC1 59

* * *

molecular target: RAC-alpha serine/threonine-protein kinase (Homo sapiens, UniProt P31749); assay: Inhibition of Akt1 phosphorylation in human by C33a cells by IPKA assay; assay type: cell-based
Sequence (P31749 whole entry): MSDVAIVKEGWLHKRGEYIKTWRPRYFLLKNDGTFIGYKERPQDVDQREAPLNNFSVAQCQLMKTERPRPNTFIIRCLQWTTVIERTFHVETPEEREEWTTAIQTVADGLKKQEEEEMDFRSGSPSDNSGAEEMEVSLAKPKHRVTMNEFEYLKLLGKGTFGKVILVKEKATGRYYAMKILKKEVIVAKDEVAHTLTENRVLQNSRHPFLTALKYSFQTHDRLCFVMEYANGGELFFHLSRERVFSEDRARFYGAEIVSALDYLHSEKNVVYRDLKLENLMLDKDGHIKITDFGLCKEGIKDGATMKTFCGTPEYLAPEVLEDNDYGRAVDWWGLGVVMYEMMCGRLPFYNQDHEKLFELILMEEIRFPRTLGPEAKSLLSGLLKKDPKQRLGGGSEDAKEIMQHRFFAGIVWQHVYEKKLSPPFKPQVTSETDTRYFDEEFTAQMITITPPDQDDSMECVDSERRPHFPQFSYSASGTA
value_type: IC50 (µM)
Please state the figure in µM; there is no need to write the unit.

CN(C)C(=O)N1CCN(c2ncc3cc(-c4ccccc4)c(-c4ccc(CN5CCC(c6nnc(-c7ccccn7)[nH]6)CC5)cc4)nc3n2)CC1	0.013

Annotate the molecule CN1CCN(c2ncc3cc(-c4ccccc4)c(-c4ccc(CN5CCC(c6nnc(-c7ccccn7)[nH]6)CC5)cc4)nc3n2)CC1 with its measured IC50. 0.036

Indicate the recorded IC50 value for this molecule: CN(C)C1CCN(c2ncc3cc(-c4ccccc4)c(-c4ccc(CN5CCC(c6nnc(-c7ccccn7)[nH]6)CC5)cc4)nc3n2)CC1 0.023

For the molecule c1ccc(-c2cc3cnc(N4CCn5cnnc5C4)nc3nc2-c2ccc(CN3CCC(c4nnc(-c5ccccn5)[nH]4)CC3)cc2)cc1 , report IC50. 0.125

Return the recorded IC50 value; entry: CC(=O)N1CCN(c2ncc3cc(-c4ccccc4)c(-c4ccc(CN5CCC(c6nnc(-c7ccccn7)[nH]6)CC5)cc4)nc3n2)CC1 0.015

Quickly give me recorded IC50 for OCCN1CCN(c2ncc3cc(-c4ccccc4)c(-c4ccc(CN5CCC(c6nnc(-c7ccccn7)[nH]6)CC5)cc4)nc3n2)CC1 0.017

Tell me IC50 reported for O[C@@H]1CN(c2ncc3cc(-c4ccccc4)c(-c4ccc(CN5CCC(c6nnc(-c7ccccn7)[nH]6)CC5)cc4)nc3n2)CCN1 0.061

Give the reported value of IC50 for this record: C[C@H]1CN(c2ncc3cc(-c4ccccc4)c(-c4ccc(CN5CCC(c6nnc(-c7ccccn7)[nH]6)CC5)cc4)nc3n2)CCN1 0.075

For the molecule C[C@@H]1CN(c2ncc3cc(-c4ccccc4)c(-c4ccc(CN5CCC(c6nnc(-c7ccccn7)[nH]6)CC5)cc4)nc3n2)CCN1 , give its measured IC50 value. 0.036

Report measured IC50; entry is CN1CCN(c2cc3cc(-c4ccccc4)c(-c4ccc(CN5CCC(c6nnc(-c7ccccn7)[nH]6)CC5)cc4)nc3cn2)CC1 0.924

Consider the molecule C[C@@H]1CN(c2ncc3cc(-c4ccccc4)c(-c4ccc(CN5CCC(c6nnc(-c7ccccn7)[nH]6)CC5)cc4)nc3n2)C[C@H](C)O1 and give its recorded IC50. 0.042

Kindly indicate its recorded IC50. Item: FC1(F)CCN(c2ncc3cc(-c4ccccc4)c(-c4ccc(CN5CCC(c6nnc(-c7ccccn7)[nH]6)CC5)cc4)nc3n2)C1 0.075

Look up and report measured IC50 for this entry: c1ccc(-c2cc3cnc(N4CCOCC4)nc3nc2-c2ccc(CN3CCC(c4nnc(-c5ccccn5)[nH]4)CC3)cc2)cc1 0.019

* * *

biological target: RAC-beta serine/threonine-protein kinase (Homo sapiens); test: Inhibition of Akt2 phosphorylation by HTRF assay
value_type: pIC50
pIC50 here: minus log base 10 of the concentration, concentration in moles per litre.

These recorded examples may help you get a feel for the data.
CN(C)CC(=O)N1CCN(c2ncc3cc(-c4ccccc4)c(-c4ccc(CN5CCC(c6nnc(-c7ccccn7)[nH]6)CC5)cc4)nc3n2)CC1	8.22
c1ccc(-c2cc3cnc(N4CCOCC4)nc3nc2-c2ccc(CN3CCC(c4nnc(-c5ccccn5)[nH]4)CC3)cc2)cc1	7.37
CN(C)CCNc1ncc2cc(-c3ccccc3)c(-c3ccc(CN4CCC(c5nnc(-c6ccccn6)[nH]5)CC4)cc3)nc2n1	6.81

Now look at this one.
Tell me its pIC50 given CS(=O)(=O)N1CCN(c2ncc3cc(-c4ccccc4)c(-c4ccc(CN5CCC(c6nnc(-c7ccccn7)[nH]6)CC5)cc4)nc3n2)CC1 as the entry. 7.64

* * *

biological target: RAC-beta serine/threonine-protein kinase (Homo sapiens, UniProt P31751); assay: Inhibition of Akt2 phosphorylation in human by C33a cells by IPKA assay; assay type: cell-based
Sequence (P31751 whole entry): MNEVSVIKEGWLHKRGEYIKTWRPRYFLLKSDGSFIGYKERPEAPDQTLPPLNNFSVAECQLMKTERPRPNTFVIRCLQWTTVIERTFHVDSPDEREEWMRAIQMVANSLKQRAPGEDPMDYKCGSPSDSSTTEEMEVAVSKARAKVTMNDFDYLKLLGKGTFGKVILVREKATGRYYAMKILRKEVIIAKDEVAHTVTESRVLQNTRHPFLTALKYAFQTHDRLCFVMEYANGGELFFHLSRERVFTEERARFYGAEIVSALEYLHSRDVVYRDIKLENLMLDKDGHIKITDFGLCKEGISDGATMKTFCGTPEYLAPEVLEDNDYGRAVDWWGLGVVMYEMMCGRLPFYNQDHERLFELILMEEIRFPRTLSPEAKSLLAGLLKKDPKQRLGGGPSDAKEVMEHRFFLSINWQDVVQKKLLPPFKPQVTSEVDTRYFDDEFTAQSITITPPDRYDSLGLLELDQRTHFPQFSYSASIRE
Measured log10 of IC50, listed per entry for reference.
Kindly note that the scale is log10 and the underlying IC50 is in µM.

Reference set, count: 6
CS(=O)(=O)N1CCN(c2ncc3cc(-c4ccccc4)c(-c4ccc(CN5CCC(c6nnc(-c7ccccn7)[nH]6)CC5)cc4)nc3n2)CC1	-0.71
CN(C)C1CCN(c2ncc3cc(-c4ccccc4)c(-c4ccc(CN5CCC(c6nnc(-c7ccccn7)[nH]6)CC5)cc4)nc3n2)CC1	-1.15
O[C@@H]1CN(c2ncc3cc(-c4ccccc4)c(-c4ccc(CN5CCC(c6nnc(-c7ccccn7)[nH]6)CC5)cc4)nc3n2)CCN1	-0.38
CC(=O)N1CCN(c2ncc3cc(-c4ccccc4)c(-c4ccc(CN5CCC(c6nnc(-c7ccccn7)[nH]6)CC5)cc4)nc3n2)CC1	-0.84
C[C@@H]1CN[C@@H](C)CN1c1ncc2cc(-c3ccccc3)c(-c3ccc(CN4CCC(c5nnc(-c6ccccn6)[nH]5)CC4)cc3)nc2n1	-0.70
CN(C)CC(=O)N1CCN(c2ncc3cc(-c4ccccc4)c(-c4ccc(CN5CCC(c6nnc(-c7ccccn7)[nH]6)CC5)cc4)nc3n2)CC1	-1.72

Okay, next one:
Respond only with log10 of IC50 recorded for c1ccc(-c2cc3cnc(N4CCn5cnnc5C4)nc3nc2-c2ccc(CN3CCC(c4nnc(-c5ccccn5)[nH]4)CC3)cc2)cc1 -0.13

* * *

biological target: RAC-beta serine/threonine-protein kinase (Homo sapiens); assay: Inhibition of Akt2 phosphorylation in human by C33a cells by IPKA assay; type: cell-based
Examples of compounds with documented pIC50 follow.
Convention used: pIC50 is expressed as -log10 of the molar concentration.

Solved cases below.
c1ccc(-c2cc3cnc(N4CCCCC4)nc3nc2-c2ccc(CN3CCC(c4nnc(-c5ccccn5)[nH]4)CC3)cc2)cc1	6.64
OC1CCN(c2ncc3cc(-c4ccccc4)c(-c4ccc(CN5CCC(c6nnc(-c7ccccn7)[nH]6)CC5)cc4)nc3n2)CC1	6.77

Please report pIC50 with RAC-beta serine/threonine-protein kinase (Homo sapiens) for item C[C@@H]1CN(c2ncc3cc(-c4ccccc4)c(-c4ccc(CN5CCC(c6nnc(-c7ccccn7)[nH]6)CC5)cc4)nc3n2)CCN1 . 7.36

Under RAC-beta serine/threonine-protein kinase (Homo sapiens), report pIC50 for CN(C)CCNc1ncc2cc(-c3ccccc3)c(-c3ccc(CN4CCC(c5nnc(-c6ccccn6)[nH]5)CC4)cc3)nc2n1 6.65

Provide the reported pIC50 (system: RAC-beta serine/threonine-protein kinase (Homo sapiens)) for CN(C)C(=O)N1CCN(c2ncc3cc(-c4ccccc4)c(-c4ccc(CN5CCC(c6nnc(-c7ccccn7)[nH]6)CC5)cc4)nc3n2)CC1 6.75

Provide the reported pIC50 (system: RAC-beta serine/threonine-protein kinase (Homo sapiens)) for c1ccc(-c2cc3cnc(-n4ccnc4)nc3nc2-c2ccc(CN3CCC(c4nnc(-c5ccccn5)[nH]4)CC3)cc2)cc1 6.16

Please look at CN1CCN(c2cc3cc(-c4ccccc4)c(-c4ccc(CN5CCC(c6nnc(-c7ccccn7)[nH]6)CC5)cc4)nc3cn2)CC1 and tell me its recorded pIC50 on RAC-beta serine/threonine-protein kinase (Homo sapiens). 6.88

Quote RAC-beta serine/threonine-protein kinase (Homo sapiens) pIC50 for entry CSc1ncc2cc(-c3ccccc3)c(-c3ccc(CNCCC(=O)c4ccccc4N)cc3)nc2n1 . 6.41

# assay system RAC-beta serine/threonine-protein kinase (Homo sapiens): give pIC50 of CN1CC(N2CCN(c3ncc4cc(-c5ccccc5)c(-c5ccc(CN6CCC(c7nnc(-c8ccccn8)[nH]7)CC6)cc5)nc4n3)CC2)C1 7.57

* * *

molecular target: RAC-alpha serine/threonine-protein kinase (Homo sapiens, UniProt P31749); test: Inhibition of Akt1 phosphorylation by HTRF assay
value_type: pIC50
Lab note — pIC50 values are minus log10 of concentrations in M.

// known answers, use as guide
O[C@@H]1CN(c2ncc3cc(-c4ccccc4)c(-c4ccc(CN5CCC(c6nnc(-c7ccccn7)[nH]6)CC5)cc4)nc3n2)CCN1	7.60
CS(=O)(=O)N1CCN(c2ncc3cc(-c4ccccc4)c(-c4ccc(CN5CCC(c6nnc(-c7ccccn7)[nH]6)CC5)cc4)nc3n2)CC1	8.15
CN1CC(N2CCN(c3ncc4cc(-c5ccccc5)c(-c5ccc(CN6CCC(c7nnc(-c8ccccn8)[nH]7)CC6)cc5)nc4n3)CC2)C1	7.92

Pending compound:
Specify pIC50 for CC(=O)N1CCN(c2ncc3cc(-c4ccccc4)c(-c4ccc(CN5CCC(c6nnc(-c7ccccn7)[nH]6)CC5)cc4)nc3n2)CC1 and stop. 8.30
